# target.under.test: human MGAT-2 (Homo sapiens (Human))
# Sequence (Q3SYC2 whole entry): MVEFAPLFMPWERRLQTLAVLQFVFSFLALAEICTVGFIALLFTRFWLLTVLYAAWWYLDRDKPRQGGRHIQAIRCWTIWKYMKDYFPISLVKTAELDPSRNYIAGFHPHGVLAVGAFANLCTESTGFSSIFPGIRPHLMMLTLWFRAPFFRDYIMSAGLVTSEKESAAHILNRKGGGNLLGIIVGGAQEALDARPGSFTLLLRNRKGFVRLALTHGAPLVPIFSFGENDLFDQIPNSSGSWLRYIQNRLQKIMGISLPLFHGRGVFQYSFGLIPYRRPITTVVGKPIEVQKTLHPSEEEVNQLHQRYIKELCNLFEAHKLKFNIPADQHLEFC
# protocol.notes: MGAT LCMS assay (h-MGAT LCMS)
# Type: biochemical
# applied.conditions: human MGAT2 membranes expressed in Sf9 cells; 100 μM 2-oleoylglycerol, 15 μM oleoyl-coenzyme A
pIC50: −log10 of the molar value.
The threshold is inclusive: pIC50 of exactly 8 counts as True; values below receive False.

>>> cat("CC(C)n1nc(C2=C(c3nnn[nH]3)C(=O)N[C@@](c3ccc(OCCCCCC(F)(F)F)cc3)(C(F)(F)F)C2)c2ccccc21")
"False"
>>> cat("O=C1N[C@@](c2ccc(OCCCCCC(F)(F)F)cc2)(C(F)(F)F)CC(c2nc3ccccc3s2)=C1c1nnn[nH]1")
"False"
>>> cat("O=C1N[C@@](c2ccc(OCCCCCC(F)(F)F)cc2)(C(F)(F)F)CC(c2ccn(C3CC3)n2)=C1c1nnn[nH]1")
"False"
>>> cat("O=C1N[C@@](c2ccc(OCCCC(F)(F)F)cc2Cl)(C(F)(F)F)CC(c2ccc(C3CC3)s2)=C1c1nnn[nH]1")
"True"
>>> cat("O=C1N[C@@](c2ccc(OCCCC(F)(F)F)cc2F)(C(F)(F)F)CC(c2ccn(C3CC3)n2)=C1c1nnn[nH]1")
"False"
>>> cat("O=C1N[C@@](c2ccc(OCCCC(F)(F)F)cc2)(C(F)(F)F)CC(c2ccn(CC3CC3)n2)=C1c1nnn[nH]1")
"False"
>>> cat("Cc1cnn(C2=C(C#N)C(=O)N[C@@](c3ccc(OCCCC(F)(F)F)cc3)(C(F)(F)F)C2)c1")
"False"
>>> cat("O=C1N[C@@](c2ccc(CCCCC(F)(F)F)cc2F)(C(F)(F)F)CC(c2ccn(CC3CC3)n2)=C1c1nnn[nH]1")
"True"

Problem: Hello, I need to know if O=C1N[C@@](c2ccc(OCCCCCC(F)(F)F)cc2F)(C(F)(F)F)CC(c2ccn(C3CC3)n2)=C1c1nnn[nH]1 has measured pIC50 not below 8. Thanks!
Result: False

Problem: Test whether the compound CC(C)n1ccc(C2=C(c3nnn[nH]3)C(=O)N[C@@](c3ccc(CCCCC(F)(F)F)cc3)(C(F)(F)F)C2)n1 records pIC50 of 8 or higher.
Result: True

Problem: # bool: pIC50 of CCCCCCC#C[C@]1(C(F)(F)F)CC(c2ccc(Br)s2)=C(c2nnn[nH]2)C(=O)N1 >= 8
Result: True

Problem: // inclusive: pIC50 at least 8? input: Cc1cnc(C2=C(c3nnn[nH]3)C(=O)N[C@@](c3ccc(OCCCC(F)(F)F)cc3)(C(F)(F)F)C2)nc1
Result: False

Problem: In plain terms: is recorded pIC50 at least 8 for Cc1ccsc1C1=C(c2nnn[nH]2)C(=O)N[C@@](c2ccc(OCCCC(F)(F)F)cc2)(C(F)(F)F)C1 ?
Result: False

Problem: Can O=C1N[C@@](c2ccc(OCCCC(F)(F)F)cc2Cl)(C(F)(F)F)CC(c2ncc(C3CC3)s2)=C1c1nnn[nH]1 be said to have pIC50 at or above 8?
Result: True

Problem: Given COc1ccc(C2=C(C#N)C(=O)N[C@@](c3ccc(OCCCCC(F)(F)F)cc3)(C(F)(F)F)C2)cn1 , state whether its pIC50 is at least 8.
Result: False

Problem: Check this compound for pIC50 at or above 8: COc1cc(OCCCC(F)(F)F)ccc1[C@]1(C(F)(F)F)CC(c2ccc(C3CC3)s2)=C(c2nnn[nH]2)C(=O)N1
Result: True

Problem: Is pIC50 for O=C1N[C@@](c2ccc(CCCCC(F)(F)F)cc2)(C(F)(F)F)CC(c2ccn(CC3CC3)n2)=C1c1nnn[nH]1 at or above 8?
Result: True
